target: human muscarinic M4 receptor (Homo sapiens); construct: expressed in transfected cells; experiment: Alphascreen Surefire phospho-ERK1/2 functional assay, M4; type: cell-based; conditions: CHO cells stably expressing human M4; Emax relative to ACh
Sequence (P08173 whole entry): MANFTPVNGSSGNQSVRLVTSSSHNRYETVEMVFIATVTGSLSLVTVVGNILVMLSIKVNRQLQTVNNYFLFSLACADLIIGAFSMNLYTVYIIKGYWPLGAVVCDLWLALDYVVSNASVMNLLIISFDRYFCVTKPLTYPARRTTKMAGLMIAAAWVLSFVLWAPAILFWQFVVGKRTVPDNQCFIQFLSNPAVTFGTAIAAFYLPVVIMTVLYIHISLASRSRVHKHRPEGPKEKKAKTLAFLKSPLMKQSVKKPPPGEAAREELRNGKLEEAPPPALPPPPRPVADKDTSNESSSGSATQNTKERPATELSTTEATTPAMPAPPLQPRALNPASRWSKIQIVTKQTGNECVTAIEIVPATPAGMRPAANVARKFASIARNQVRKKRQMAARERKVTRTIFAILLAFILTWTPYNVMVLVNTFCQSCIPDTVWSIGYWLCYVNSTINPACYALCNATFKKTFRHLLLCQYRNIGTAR
readoutName: M4 % Emax cf. ACh (%)

# compound, M4 % Emax cf. ACh [%]
measured = [
    ("CCOC(=O)N1CCCN(C2CCC3(CC2)C(=O)Nc2cc(C)ccc23)CC1 (single isomer, unassigned) [4-6 isomer 2]", 116),
]

1 = Cc1noc(C2CC3(CCN(C4CCC(C#N)(c5ccc(F)cn5)CC4)C3)C2)n1 (single isomer, unassigned) [21-3 Isomer 4]
2 = CCOC(=O)N1CCCN(C2CCC3(CC2)C(=O)Nc2cc(C)ccc23)CC1 (single isomer, unassigned) [4-6 isomer 1]
stdin: Select the item with the higher value of M4 % Emax cf. ACh from the options 1 and 2 listed. Give the label of your selection.
stdout: 1
(1: 75%, 2: 26%)

* * *

target: human muscarinic M3 receptor (Homo sapiens); construct: expressed in transfected cells; assay: Alphascreen Surefire phospho-ERK1/2 functional assay, M3; format: cell-based; conditions: CHO cells stably expressing human M3; phospho-ERK1/2; read-out: pEC50 M3 (converted)
Sequence (P20309 whole entry): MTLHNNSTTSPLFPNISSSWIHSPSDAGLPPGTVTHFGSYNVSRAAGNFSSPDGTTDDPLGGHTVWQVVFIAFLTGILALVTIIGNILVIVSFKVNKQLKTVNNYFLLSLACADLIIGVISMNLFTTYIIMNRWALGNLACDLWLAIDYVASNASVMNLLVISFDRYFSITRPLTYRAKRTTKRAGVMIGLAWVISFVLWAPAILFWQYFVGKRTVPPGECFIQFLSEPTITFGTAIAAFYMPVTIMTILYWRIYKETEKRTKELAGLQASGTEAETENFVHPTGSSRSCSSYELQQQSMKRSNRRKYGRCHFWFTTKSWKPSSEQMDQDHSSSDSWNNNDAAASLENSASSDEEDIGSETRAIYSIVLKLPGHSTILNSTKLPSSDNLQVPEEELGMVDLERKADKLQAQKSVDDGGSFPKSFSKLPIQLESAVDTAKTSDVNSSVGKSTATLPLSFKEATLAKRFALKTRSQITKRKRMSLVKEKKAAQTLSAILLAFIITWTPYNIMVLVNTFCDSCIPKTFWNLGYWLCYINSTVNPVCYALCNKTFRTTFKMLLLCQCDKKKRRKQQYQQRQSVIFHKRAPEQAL
readoutName: EC50

# compound, EC50
rows = [
    ("CCOC(=O)N1CCCN(C2CCC(C#N)(c3ccncc3)CC2)CC1 (mixture of isomers) [3-12 mixture of isomers]", "> 20 µM"),
    ("CCOC(=O)N[C@H]1CCN(C2CCC3(CC2)C(=O)Nc2ccc(OC)cc23)C1 (single isomer, unassigned) [2-10 isomer 1]", "> 20 µM"),
]

Field: next compound
stdin: Name the reported EC50 value associated with the compound CCc1noc(C2CC3(C2)CN(C2CCC4(CC2)C(=O)Nc2ccccc24)C3)n1 (single isomer, unassigned) [25-1 Isomer 1]
stdout: > 20 µM

* * *

Target: human muscarinic M4 receptor (Homo sapiens)
Construct: expressed in transfected cells
Test: Alphascreen Surefire phospho-ERK1/2 functional assay, M4
Type: cell-based
Settings: CHO, read-out: M4 % Emax cf. ACh, CHO cells stably expressing human M4; Emax relative to ACh
Protocol: Functional assays were performed using the Alphascreen Surefire phospho-ERK1/2 assay (Crouch & Osmond, Comb. Chem. High Throughput Screen, 2008). […] Plates were incubated for 2 h with gentle agitation in the dark and then read on a PHERAstar plate reader. pEC50 and Emax figures were calculated from the resulting data for each receptor subtype.
readoutName: Emax (%)

# compound, Emax (%)
measured = [
    ("CC#CCOC(=O)N1CCCN(C2CCC(C#N)(c3ccncc3)CC2)CC1 (single isomer, unassigned) [3-30 Isomer 1]", 72),
    ("CCOC(=O)N[C@H]1CCN(C2CCC3(CC2)C(=O)Nc2ccc(OC)nc23)C1 (single isomer, unassigned) [2-20 isomer 1]", 16),
    ("Cc1noc(C2CC2CNC2CCC3(CC2)C(=O)Nc2ccccc23)n1 (single isomer, unassigned) [23-1 Isomer 1]", 78),
    ("CCOC(=O)NC1CCN(C2CCC3(CC2)C(=O)Nc2ccccc23)CC1 (single isomer, unassigned) [7-1 isomer 1]", 26),
    ("CCOC(=O)N[C@@H]1CCN(C2CCC(C#N)(c3ccccc3F)CC2)C1 (single isomer, unassigned) [1-5 Isomer 2]", 46),
]

I = CCOC(=O)N1CCCN(C2CCC(C#N)(c3ccc(OC)cc3)CC2)CC1 (mixture of isomers) [3-9 mixture of isomers]
II = N#CC1(c2ccccc2)CCC(N2CCCN(C(=O)OCCF)CC2)CC1 (mixture of isomers) [3-29 mixture of isomers]
III = CCOC(=O)N(C)[C@@H]1CCN(C2CCC3(CC2)C(=O)Nc2ncccc23)C1 (single isomer, unassigned) [2-18 isomer 1]
IV = CCOC(=O)N1CCCN(C2CCC(c3nc(CC)c(C)[nH]3)CC2)CC1 (single isomer, unassigned) [5-1 Isomer 2]
stdin: Order field: Emax | Direction: descending (largest first) Give me the labels in the order the question wants.
stdout: III, II, IV, I
(III: 141%, II: 68%, IV: 26%, I: 2%)

I = CCc1noc([C@H]2CC[C@@H](NC3CCC(C#N)(c4ccccc4)CC3)C2)n1 (single isomer, unassigned) [19-2 Isomer 2]
II = CCOC(=O)N1CCCN(C2CCC3(CC2)C(=O)Nc2ccc(OC)cc23)CC1 (single isomer, unassigned) [4-12 isomer 1]
III = C#CCOC(=O)N1CCCN(C2CCC(C#N)(c3ccc(OC)cn3)CC2)CC1 (single isomer, unassigned) [3-31 Isomer 1]
stdin: Order field: Emax | Direction: descending (largest first) Give me the labels in the order the question wants.
stdout: I, III, II

* * *

target: human muscarinic M1 receptor (Homo sapiens, UniProt P11229); experiment: Alphascreen Surefire phospho-ERK1/2 functional assay, M1; type: cell-based; conditions: CHO, read-out: M1 % Emax cf. ACh, CHO cells stably expressing human M1; Emax relative to ACh
Sequence (P11229 whole entry): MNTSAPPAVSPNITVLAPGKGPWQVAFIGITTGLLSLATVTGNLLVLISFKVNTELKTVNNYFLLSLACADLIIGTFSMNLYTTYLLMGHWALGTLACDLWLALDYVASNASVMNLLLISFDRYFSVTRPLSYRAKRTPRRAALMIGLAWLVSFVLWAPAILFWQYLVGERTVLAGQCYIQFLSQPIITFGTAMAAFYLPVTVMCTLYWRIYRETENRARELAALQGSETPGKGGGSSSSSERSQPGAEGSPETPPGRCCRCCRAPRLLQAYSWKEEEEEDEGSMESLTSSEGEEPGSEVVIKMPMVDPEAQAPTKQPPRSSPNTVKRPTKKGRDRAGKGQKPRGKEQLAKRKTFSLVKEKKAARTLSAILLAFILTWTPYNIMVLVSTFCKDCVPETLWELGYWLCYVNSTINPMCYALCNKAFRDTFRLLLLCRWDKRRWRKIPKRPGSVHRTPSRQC
readoutName: Emax (%)

A = CCc1noc(C2CC3(C2)CN(C2CCC4(CC2)C(=O)Nc2ccccc24)C3)n1 (single isomer, unassigned) [25-1 Isomer 1]
B = CCOC(=O)N1CCCN(C2CCC3(CC2)C(=O)Nc2ccc(C)cc23)CC1 (single isomer, unassigned) [4-7 isomer 1]
stdin: Given A and given B , which shows the smaller recorded Emax? Give the label of your selection.
stdout: A

1 = CCOC(=O)N1CCCN(C2CCC(C#N)(c3ccc(F)cc3)CC2)CC1 (mixture of isomers) [3-3 mixture of isomers]
2 = CCOC(=O)N(C)[C@@H]1CCN(C2CCC3(CC2)C(=O)Nc2cccnc23)C1 (single isomer, unassigned) [2-21 isomer 2]
stdin: Select the item with the higher value of Emax from the options 1 and 2 listed. Give the label of your selection.
stdout: 1
(1: 101%, 2: 58%)

* * *

molecular target: human muscarinic M1 receptor (Homo sapiens); test: Alphascreen Surefire phospho-ERK1/2 functional assay, M1; assay type: cell-based; conditions: CHO cells stably expressing human M1; phospho-ERK1/2; read-out: pEC50 M1 (converted)
readoutName: EC50 (µM)

Some compounds with recorded EC50:
# compound, unitText, EC50
measured = [
    ("CCOC(=O)N[C@H]1CCN(C2CCC(C#N)(c3ccc(Cl)cn3)CC2)C1 (single isomer, unassigned) [1-15 Isomer 2]", "µM", 0.269),
    ("CCOC(=O)N1CCCN(C2CCC3(CC2)C(=O)Nc2cccc(C)c23)CC1 (single isomer, unassigned) [4-8 isomer 1]", "µM", 1.1),
    ("CCOC(=O)N1CCCN(C2CCC(C#N)(c3ccc(OCC)cn3)CC2)CC1 (single isomer, unassigned) [3-20 Isomer 2]", "µM", 0.0115),
    ("CCc1noc(C2CC3(C2)CN(C2CCC4(CC2)C(=O)Nc2ccccc24)C3)n1 (single isomer, unassigned) [25-1 Isomer 1]", "µM", 0.617),
    ("CCCC(=O)N1CCCN(C2CCC3(CC2)C(=O)Nc2ccccc23)CC1 (single isomer, unassigned) [4-3 isomer 2]", "µM", 0.794),
    ("CCOC(=O)N[C@H]1CCN(C2CCC3(CC2)C(=O)Nc2cc(C)ccc23)C1 (single isomer, unassigned) [2-4 isomer 1]", "µM", 0.0661),
]

P = CCOC(=O)N1CCCN(C2CCC(C#N)(c3ccc(OC)cn3)CC2)CC1 (single isomer, unassigned) [3-19 Isomer 2]
Q = CCOC(=O)N1CCCN(C2CCC3(CC2)C(=O)Nc2ccc(OC)nc23)CC1 (single isomer, unassigned) [4-24 isomer 1]
R = N#CC1(c2ccccc2)CCC(N2CC3(CC(c4nc(C(F)(F)F)no4)C3)C2)CC1 (single isomer, unassigned) [20-1 Isomer 2]
stdin: Ordering: ascending EC50. Give me the labels in the order the question wants.
stdout: P, R, Q
(P: 0.0302 µM, R: 0.219 µM, Q: 0.813 µM)

1 = CCOC(=O)NC1CCN(C2CCC3(CC2)C(=O)Nc2ccccc23)CC1 (single isomer, unassigned) [7-1 isomer 1]
2 = CCOC(=O)N[C@H]1CCN(C2CCC3(CC2)C(=O)Nc2cc(F)ccc23)C1 (single isomer, unassigned) [2-7 isomer 1]
stdin: Given 1 and given 2 , which shows the smaller recorded EC50? Give the label of your selection.
stdout: 1
(1: 0.257 µM, 2: 1.78 µM)

1 = CCc1noc([C@H]2CC[C@@H](NC3CCC(C#N)(c4ccccc4)CC3)C2)n1 (single isomer, unassigned) [19-2 Isomer 2]
2 = Cc1noc(C2CC2CNC2CCC3(CC2)C(=O)Nc2ccccc23)n1 (single isomer, unassigned) [23-1 Isomer 1]
stdin: Select the item with the higher value of EC50 from the options 1 and 2 listed. Give the label of your selection.
stdout: 2

* * *

# key: entry, value: EC50
biological target: human muscarinic M2 receptor (Homo sapiens, UniProt P08172); test: Alphascreen Surefire phospho-ERK1/2 functional assay, M2; assay type: cell-based; conditions: CHO cells stably expressing human M2; phospho-ERK1/2; read-out: pEC50 M2 (converted)
Sequence (P08172 whole entry): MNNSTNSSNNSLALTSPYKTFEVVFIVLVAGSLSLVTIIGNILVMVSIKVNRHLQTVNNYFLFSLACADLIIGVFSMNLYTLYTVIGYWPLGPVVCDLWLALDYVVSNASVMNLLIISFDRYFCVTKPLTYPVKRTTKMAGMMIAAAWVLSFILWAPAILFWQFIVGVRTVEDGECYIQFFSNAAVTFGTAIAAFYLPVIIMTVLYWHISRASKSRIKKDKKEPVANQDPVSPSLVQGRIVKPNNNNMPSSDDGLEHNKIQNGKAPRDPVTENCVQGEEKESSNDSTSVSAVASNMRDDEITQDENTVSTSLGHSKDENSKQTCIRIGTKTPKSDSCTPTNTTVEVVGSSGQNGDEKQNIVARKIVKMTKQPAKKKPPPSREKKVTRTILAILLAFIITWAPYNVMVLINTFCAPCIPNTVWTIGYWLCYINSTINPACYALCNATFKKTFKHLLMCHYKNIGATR

# compound, readoutName, endpointValue
records = [
    ("CCOC(=O)N1CCCN(C2CCC3(CC2)C(=O)Nc2cc(OC)ccc23)CC1 (single isomer, unassigned) [4-11 isomer 2]", "EC50", "> 20 µM"),
    ("O=C1Nc2ccccc2C12CCC(N[C@@H]1CC[C@H](c3nc(C(F)(F)F)no3)C1)CC2 (single isomer, unassigned) [24-1 Isomer 1]", "EC50", "> 20 µM"),
]

stdin: Name the reported EC50 value associated with the compound CCOC(=O)N1CCC2(CCN(C3CCC(C#N)(c4ccccc4)CC3)CC2)C1 (single isomer, unassigned) [13-1 Isomer 2]
stdout: > 20 µM
